Origin of measurements: patent US20150342954A1

study_target: soluble guanylate cyclase (sGC) (Homo sapiens, UniProt Q02108+Q02153)
Construct: endogenously expressing soluble guanylate cyclase (sGC); endogenous in cells; host or cells: HEK293
Sequence (Q02153 whole entry): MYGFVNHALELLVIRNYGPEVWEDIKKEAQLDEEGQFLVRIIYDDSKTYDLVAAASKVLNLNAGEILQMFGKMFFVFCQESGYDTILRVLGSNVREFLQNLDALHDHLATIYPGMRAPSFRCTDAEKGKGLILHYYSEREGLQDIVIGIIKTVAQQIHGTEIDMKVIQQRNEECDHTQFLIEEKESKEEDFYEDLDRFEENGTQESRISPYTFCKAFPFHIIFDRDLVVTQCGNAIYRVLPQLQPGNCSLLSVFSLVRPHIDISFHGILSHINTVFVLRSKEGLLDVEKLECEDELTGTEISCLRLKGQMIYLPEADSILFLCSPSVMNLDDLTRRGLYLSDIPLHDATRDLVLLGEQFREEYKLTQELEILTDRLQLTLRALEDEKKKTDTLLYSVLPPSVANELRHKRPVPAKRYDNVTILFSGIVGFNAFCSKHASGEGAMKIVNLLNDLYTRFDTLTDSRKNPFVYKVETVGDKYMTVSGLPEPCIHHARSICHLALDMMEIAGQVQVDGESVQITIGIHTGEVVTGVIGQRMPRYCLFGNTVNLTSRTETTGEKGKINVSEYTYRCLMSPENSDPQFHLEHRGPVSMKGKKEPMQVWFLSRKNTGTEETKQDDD
Sequence (Q02108 whole entry): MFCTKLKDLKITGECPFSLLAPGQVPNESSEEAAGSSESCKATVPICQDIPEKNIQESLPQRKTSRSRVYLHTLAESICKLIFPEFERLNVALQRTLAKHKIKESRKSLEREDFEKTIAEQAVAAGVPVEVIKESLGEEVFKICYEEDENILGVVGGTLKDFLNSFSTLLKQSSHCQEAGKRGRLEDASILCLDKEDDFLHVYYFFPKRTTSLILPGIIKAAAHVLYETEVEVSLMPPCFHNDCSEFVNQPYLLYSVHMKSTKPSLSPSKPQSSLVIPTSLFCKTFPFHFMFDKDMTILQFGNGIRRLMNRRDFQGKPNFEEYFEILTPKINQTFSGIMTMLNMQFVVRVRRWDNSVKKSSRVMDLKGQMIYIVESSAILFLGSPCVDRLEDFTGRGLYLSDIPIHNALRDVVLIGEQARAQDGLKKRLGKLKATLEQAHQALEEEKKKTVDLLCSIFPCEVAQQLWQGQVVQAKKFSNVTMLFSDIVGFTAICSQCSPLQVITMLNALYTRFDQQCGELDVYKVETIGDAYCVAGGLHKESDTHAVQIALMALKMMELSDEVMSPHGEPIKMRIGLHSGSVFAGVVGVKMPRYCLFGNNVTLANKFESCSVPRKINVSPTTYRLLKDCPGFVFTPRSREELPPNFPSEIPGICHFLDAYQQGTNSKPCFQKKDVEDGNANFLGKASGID
run_description: sGC-HEK-cGMP assay (run with SNP incubation)
Format: cell-based
run_parameters: Table 3C; top of concentration-response curve not fitted to 100%; 10 μM SNP; 100% = 30 μM BAY 41-2272 with 10 μM SNP; read-out: HEK assay Emax-unconstrained (Percent)
parameter_measured: Emax

compound | result
Nc1nc(-c2cc(-c3ccon3)n(Cc3cccc(F)c3F)n2)ncc1NC(=O)c1ccc(C(F)(F)F)cc1 | 80 to 100%

For NC1=NNC2NC(c3cc(-c4ccon4)n(Cc4ccccc4F)n3)=NC=C12 (stereo not shown) , write its Emax. 80 to 100%

For `Nc1nc(-c2cc(-c3ccon3)n(Cc3ccccc3F)n2)ncc1NC(=O)CCC(F)(F)F` , write its Emax. 60 to 80%

For `N#Cc1nc(-c2cc(-c3ccon3)n(Cc3ccccc3F)n2)ncc1F` , write its Emax. 20 to 40%
